# Tested system: T1, cynomologous IL-23 (cynomolgus monkey)
# T1 construct: also called cynomolgus IL-23; cynomolgus monkey IL-23
# Procedure details: SPR, ProteOn XPR36, global 1:1 fit
Measured quantity: pKd
By convention, pKd is the negative base-10 log of a molar concentration.

Recorded pKd for Antibody C (antibody, human IgG1, kappa, L234A L235A, V domains shown, Humanized 6B8, human IgG1-KO (L234A/L235A) / kappa; also called 6B8-IgG1KO-2 with IgK-65; 6B8CVH-02 / 6B8CVK-65) VH: QVQLVQSGAEVKKPGSSVKVSCKASGYTFTDQTIHWMRQAPGQGLEWIGYIYPRDDSPKYNENFKGKVTITADKSTSTAYMELSSLRSEDTAVYYCAIPDRSGYAWFIYWGQGTLVTVSS VL: DIQMTQSPSSLSASVGDRVTITCKASRDVAIAVAWYQQKPGKVPKLLLFWASTRHTGVPDRFSGSGSGTDFTLTISSLQPEDLADYYCHQYSSYPFTFGQGTKLEIKR , please?
11.54

Could you now consider this next binder?
Consider the binder shown here: Antibody D (antibody, human IgG1, kappa, L234A L235A, V domains shown, Humanized 6B8, human IgG1-KO (L234A/L235A) / kappa; also called 6B8-IgG1KO-5 with IgK-65; 6B8CVH-05 / 6B8CVK-65) VH: QVQLVQSGAEVKKPGSSVKVSCKASGFTFTDQTIHWVRQAPGQGLEWMGYIYPRDDSPKYNENFKGKVTLTADKSTSTAYMELSSLRSEDTAVYYCAIPDRSGYAWFIYWGQGTLVTVSS VL: DIQMTQSPSSLSASVGDRVTITCKASRDVAIAVAWYQQKPGKVPKLLLFWASTRHTGVPDRFSGSGSGTDFTLTISSLQPEDLADYYCHQYSSYPFTFGQGTKLEIKR What is its recorded pKd?
10.80

Value source: patent US20210317201A1
